- Test Details: Rat PK following intravenous and oral dosing
- Assay type: in vivo, male Sprague-Dawley rats
- Experimental Parameters: male, Sprague-Dawley, plasma, Compound I-1 1 mg/kg IV in PBS, analyte Compound I-1
Observed Property: AUC(0-inf) (ng·h/mL)
Write the answer as a number in ng·h/mL, unit excluded.

[ask] Given the compound O=P(O)(O)OC(CNc1nc(-c2cc(-c3ccon3)n(Cc3ccccc3F)n2)ncc1F)(C(F)(F)F)C(F)(F)F [Compound I-1] , write its reported AUC(0-inf).
[reply] 549

* * *

- Test Details: Rat PK following intravenous and oral dosing
- Assay type: in vivo, male Sprague-Dawley rats
- Experimental Parameters: male, Sprague-Dawley, plasma, iv, 1 mg/kg, Compound I-1 1 mg/kg IV in PBS, analyte Compound I-1
Observed Property: half-life

[ask] Given the compound O=P(O)(O)OC(CNc1nc(-c2cc(-c3ccon3)n(Cc3ccccc3F)n2)ncc1F)(C(F)(F)F)C(F)(F)F , write its reported half-life.
[reply] ~9 min
